System: P12-Ichikawa
Test: cell viability relative to DMSO control; higher = less cytotoxic
Conditions: HPLM + 10% dialyzed FBS; 48 h; 0.0211 µM
# cell viability listing for each entry below
Please give a number only; it is taken to be in %.

For orientation, consider the following solved cases.
INSERT INTO assay_data (chemicalstructure, targetortestsystem, recordednumber) VALUES
  ('Oc1ccc(-c2nc(-c3ccncc3)c(-c3ccc(F)cc3)[nH]2)cc1', 'P12-Ichikawa', 114),
  ('NNC(=O)c1ccncc1', 'P12-Ichikawa', 121);

# ---- query compound ----
query: Look at this compound and give its reported cell viability. CC(C)N(CCCNC(=O)Nc1ccc(C(C)(C)C)cc1)C[C@H]1O[C@@H](n2cc(Br)c3c(N)ncnc32)[C@H](O)[C@@H]1O
result: 93
